Molecular target: T1, recombinant extracellular domain protein of human DLL3 (h.DLL3-ECD-His) (human, UniProt Q9NYJ7 27-492)
T1 construct: extracellular domain; Commercial protein; also called human DLL3 antigen; not shown: His tag
T1 sequence (looked up): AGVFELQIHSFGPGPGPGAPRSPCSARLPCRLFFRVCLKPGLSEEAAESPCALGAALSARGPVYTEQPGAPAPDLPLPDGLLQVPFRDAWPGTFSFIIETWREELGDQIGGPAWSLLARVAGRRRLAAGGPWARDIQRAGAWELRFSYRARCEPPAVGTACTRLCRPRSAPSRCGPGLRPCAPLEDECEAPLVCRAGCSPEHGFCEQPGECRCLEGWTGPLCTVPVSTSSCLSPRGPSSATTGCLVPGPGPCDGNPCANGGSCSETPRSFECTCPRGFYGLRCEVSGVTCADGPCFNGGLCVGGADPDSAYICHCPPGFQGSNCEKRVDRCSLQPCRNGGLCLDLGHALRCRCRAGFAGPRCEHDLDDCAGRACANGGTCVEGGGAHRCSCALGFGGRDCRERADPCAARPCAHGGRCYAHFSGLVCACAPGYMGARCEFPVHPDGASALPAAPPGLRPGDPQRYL
Assay: ELISA, titrated antibody on plate-coated human DLL3, OD450nm
value.kind: EC50 (read off the curve)

binder="DL306 (antibody, V domains shown) VH: EVQLQQSGPELVKPGASVKMSCRASGYTFTDYYMKWVKQSHGKSLEWIGDINPNNGDTFYNQKFKGKATLTIDKSSSTAYMQLNSLTSDDSAVYYCARDGNYAYFDYWGQGTTLTVSS VL: DIVLTQSPASLAVSLGQRATISCRASKSVSTSGYSYMHWYQQKPGQPPKLLIFLASNLESGVPARFSGSGSGTDFTLNIHPVEEEDAATYYCQHSRHLPWTFGGGTKLEIK" value_kind="EC50 (read off the curve)" result="~5 ng/mL"
binder="DL301 (antibody, V domains shown) VH: QVQLQQSGADLVRPGTSVKVSCKASGYAFTNYLIEWIKQRPGQGLEWIGVMNPGSGGTHYSEKFRGKATLTADKSSSTAYMQLISLTSDDSAVYFCARSDYDYVTYAMDYWGQGTSVTVSS VL: DIKMTQSPSSMYASLGERVTITCKASQDINSYLIWFQQKPGKSPKTLIYRTNRLVDGVPSRFSGSGSGQDYSLTISSLEYGDMGIYYCLQYDEFPFTFGSGTKLEIK" value_kind="EC50 (read off the curve)" result="~4 ng/mL"
binder="DL312 (antibody, V domains shown) VH: EVKLVESGGGLVQPGGSLSLSCAASGFTFTDYYMNWVRQPPGKALEWLALIRNKANGYTTEYNASVKGRFTISRDNSQNILYLQMNALRAEDSATYYCARDSDGYYEYYFDYWGQGTTLTVSS VL: DIQMTQSPSSLSASLGERVSLTCRASQEISDYLSWLQQKPDGTIKRLIFAASTLDSGVPKRFSGSRSGSDFSLSISSLESEDFADYYCLQYASYPYTFGSGTKLEIK" value_kind="EC50 (read off the curve)" result="~5 ng/mL"
binder="DL309 (antibody, V domains shown) VH: QVQLQQSGGDLMKPGASVKISCKAAGYTFSNYYIEWVKQRPGHGLEWIGEILPGSGSTTYNEKFKGKASFTADTSSNTAYMQLSSLTSEDSAVYYCARWGAREPGFPYWGQGTLVTVSA VL: DIVMTQSQKFMSTSVGDRVSVTCKASQNVGTNVAWYQQKPGQSPKALIYSASYRYSGVPDRFTGSGSGTDFTLTISNVQSEDLAEYFCQQYNNYPLTFGAGTKLELK" value_kind="EC50 (read off the curve)" result="~6 ng/mL"
